Where these numbers come from: ChEMBL document CHEMBL1134340

- Measurement target: Gonadotropin-releasing hormone receptor (Homo sapiens, UniProt P30968)
- Sequence (P30968 whole entry): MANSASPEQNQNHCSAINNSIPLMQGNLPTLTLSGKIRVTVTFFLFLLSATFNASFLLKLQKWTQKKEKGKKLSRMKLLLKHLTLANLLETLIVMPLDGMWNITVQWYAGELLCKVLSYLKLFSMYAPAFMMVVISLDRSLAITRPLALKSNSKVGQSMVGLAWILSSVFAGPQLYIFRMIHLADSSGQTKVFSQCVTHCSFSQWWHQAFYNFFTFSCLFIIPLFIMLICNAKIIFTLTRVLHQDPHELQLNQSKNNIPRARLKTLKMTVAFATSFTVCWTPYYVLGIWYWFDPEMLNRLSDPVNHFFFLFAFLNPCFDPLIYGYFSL
- Protocol: Competitive antagonism of GnRH-induced response in the reporter gene assay
- Format: functional
- Test context: read-out: pA2 (converted)
Where a SMILES comes first, the peptide text is derived from it. [ ]: non-standard residue; d: D form. d(hArg(Et2)) = CCN=C(NCC)NCCCC[C@@H](N)C(=O)O; hArg(Et2) = CCN=C(NCC)NCCCC[C@H](N)C(=O)O; dPhe(4-Cl) = N[C@H](Cc1ccc(Cl)cc1)C(=O)O; d2Nal = N[C@H](Cc1ccc2ccccc2c1)C(=O)O; Lys(iPr) = CC(C)NCCCC[C@H](N)C(=O)O; NMeY = CN[C@@H](Cc1ccc(O)cc1)C(=O)O; d3Pal = N[C@H](Cc1cccnc1)C(=O)O
Kb values, listed per item
Readout label: Kb (nM)

molecule=CCNC(=O)[C@@H]1CCCN1C(=O)[C@H](CCCCNC(C)C)NC(=O)[C@H](CC(C)C)NC(=O)[C@@H](Cc1ccc(CNC(N)=O)cc1)NC(=O)[C@H](Cc1ccc(NC(=O)[C@@H]2CC(=O)NC(=O)N2)cc1)NC(=O)[C@H](CO)NC(=O)[C@@H](Cc1cccnc1)NC(=O)[C@@H](Cc1ccc(Cl)cc1)NC(=O)[C@@H](Cc1ccc2ccccc2c1)NC(C)=O numeric_readout=0.631
molecule=CCNC(=O)Nc1ccc(C[C@H](NC(=O)[C@H](CO)NC(=O)[C@@H](Cc2cccnc2)NC(=O)[C@@H](Cc2ccc(Cl)cc2)NC(=O)[C@@H](Cc2ccc3ccccc3c2)NC(C)=O)C(=O)N[C@H](Cc2ccc(NC(=O)NCC)cc2)C(=O)N[C@@H](CC(C)C)C(=O)N[C@@H](CCCCNC(C)C)C(=O)N2CCC[C@H]2C(=O)N[C@H](C)C(N)=O)cc1 numeric_readout=1.26
molecule=CNC(=O)NCc1ccc(C[C@@H](NC(=O)[C@H](Cc2ccc(NC(=O)[C@@H]3CC(=O)NC(=O)N3)cc2)NC(=O)[C@H](CO)NC(=O)[C@@H](Cc2cccnc2)NC(=O)[C@@H](Cc2ccc(Cl)cc2)NC(=O)[C@@H](Cc2ccc3ccccc3c2)NC(C)=O)C(=O)N[C@@H](CC(C)C)C(=O)N[C@@H](CCCCNC(C)C)C(=O)N2CCC[C@H]2C(=O)N[C@H](C)C(N)=O)cc1 numeric_readout=0.794
molecule=CC(=O)N[C@H](Cc1ccc2ccccc2c1)C(=O)N[C@H](Cc1ccc(Cl)cc1)C(=O)N[C@H](Cc1cccnc1)C(=O)N[C@@H](CO)C(=O)N[C@@H](Cc1ccc(NC(=O)[C@@H]2CC(=O)NC(=O)N2)cc1)C(=O)N[C@H](Cc1cccnc1)C(=O)N[C@@H](CC(C)C)C(=O)N[C@@H](CCCCNC(C)C)C(=O)N1CCC[C@H]1C(=O)N[C@H](C)C(N)=O numeric_readout=2
molecule=CC(=O)N[C@H](Cc1ccc2ccccc2c1)C(=O)N[C@H](Cc1ccc(Cl)cc1)C(=O)N[C@H](Cc1cccnc1)C(=O)N[C@@H](CO)C(=O)N[C@@H](Cc1ccc(NC(=O)[C@@H]2CC(=O)NC(=O)N2)cc1)C(=O)N[C@H](Cc1ccc(NC(=O)[C@@H]2CC(=O)NC(=O)N2)cc1)C(=O)N[C@@H](CC(C)C)C(=O)N[C@@H](CCCCNC(C)C)C(=O)N1CCC[C@H]1C(=O)N[C@H](C)C(N)=O numeric_readout=1
molecule="CCN=C(NCC)NCCCC[C@H](NC(=O)[C@H](CC(C)C)NC(=O)[C@@H](CCCCNC(=NCC)NCC)NC(=O)[C@H](Cc1ccc(O)cc1)NC(=O)[C@H](CO)NC(=O)[C@@H](Cc1cccnc1)NC(=O)[C@@H](Cc1ccc(Cl)cc1)NC(=O)[C@@H](Cc1ccc2ccccc2c1)NC(C)=O)C(=O)N1CCC[C@H]1C(=O)N[C@H](C)C(N)=O [GANIRELIX ACETATE] (Ac-[d2Nal][dPhe(4-Cl)][d3Pal]SY[d(hArg(Et2))]L[hArg(Et2)]P[dA]-NH2)" numeric_readout=0.501
molecule=CC(=O)N[C@H](Cc1ccc2ccccc2c1)C(=O)N[C@H](Cc1ccc(Cl)cc1)C(=O)N[C@H](Cc1cccnc1)C(=O)N[C@@H](CO)C(=O)N[C@@H](Cc1ccc(NC(=O)[C@@H]2CC(=O)NC(=O)N2)cc1)C(=O)N[C@H](CCCNC(N)=O)C(=O)N[C@@H](CC(C)C)C(=O)N[C@@H](CCCCNC(C)C)C(=O)N1CCC[C@H]1C(=O)N[C@H](C)C(N)=O numeric_readout=0.794
molecule=CC(=O)N[C@H](Cc1ccc2ccccc2c1)C(=O)N[C@H](Cc1ccc(Cl)cc1)C(=O)N[C@H](Cc1cccnc1)C(=O)N[C@@H](CO)C(=O)N[C@@H](Cc1ccc(NC(=O)[C@@H]2CC(=O)NC(=O)N2)cc1)C(=O)N[C@H](Cc1ccc(CNC(N)=O)cc1)C(=O)N[C@@H](CC(C)C)C(=O)N[C@@H](CCCCNC(C)C)C(=O)N1CCC[C@H]1C(=O)N[C@H](C)C(N)=O numeric_readout=1.26
molecule="CC(=O)N[C@H](Cc1ccc2ccccc2c1)C(=O)N[C@H](Cc1ccc(Cl)cc1)C(=O)N[C@H](Cc1cccnc1)C(=O)N[C@@H](CO)C(=O)N(C)[C@@H](Cc1ccc(O)cc1)C(=O)N[C@H](CC(N)=O)C(=O)N[C@@H](CC(C)C)C(=O)N[C@@H](CCCCNC(C)C)C(=O)N1CCC[C@H]1C(=O)N[C@H](C)C(N)=O [ABARELIX] (Ac-[d2Nal][dPhe(4-Cl)][d3Pal]S[NMeY][dN]L[Lys(iPr)]P[dA]-NH2)" numeric_readout=0.794
molecule="CC(=O)Nc1ccc(C[C@H](NC(=O)[C@H](CO)NC(=O)[C@@H](Cc2cccnc2)NC(=O)[C@@H](Cc2ccc(Cl)cc2)NC(=O)[C@@H](Cc2ccc3ccccc3c2)NC(C)=O)C(=O)N[C@H](Cc2ccc(NC(C)=O)cc2)C(=O)N[C@@H](CC(C)C)C(=O)N[C@@H](CCCCNC(C)C)C(=O)N2CCC[C@H]2C(=O)N[C@H](C)C(N)=O)cc1 [ACYLINE]" numeric_readout=2.51
molecule=CC(=O)Nc1ccc(C[C@@H](NC(=O)[C@H](Cc2ccc(CNC(=O)[C@@H]3CC(=O)NC(=O)N3)cc2)NC(=O)[C@H](CO)NC(=O)[C@@H](Cc2cccnc2)NC(=O)[C@@H](Cc2ccc(Cl)cc2)NC(=O)[C@@H](Cc2ccc3ccccc3c2)NC(C)=O)C(=O)N[C@@H](CC(C)C)C(=O)N[C@@H](CCCCNC(C)C)C(=O)N2CCC[C@H]2C(=O)N[C@H](C)C(N)=O)cc1 numeric_readout=0.316

###

Measured Inhibition by item
- Species: Rattus norvegicus
- Protocol: Compound was tested for inhibition of Leutenizing hormone release at 96 hours (very long duration) in castrated male rat assay
- Format: functional
- Set-up: concentration or dose not given beside the values
Readout label: Inhibition

smiles_data=CNC(=O)NCc1ccc(C[C@@H](NC(=O)[C@H](Cc2ccc(NC(=O)[C@@H]3CC(=O)NC(=O)N3)cc2)NC(=O)[C@H](CO)NC(=O)[C@@H](Cc2cccnc2)NC(=O)[C@@H](Cc2ccc(Cl)cc2)NC(=O)[C@@H](Cc2ccc3ccccc3c2)NC(C)=O)C(=O)N[C@@H](CC(C)C)C(=O)N[C@@H](CCCCNC(C)C)C(=O)N2CCC[C@H]2C(=O)N[C@H](C)C(N)=O)cc1 result=>80%
smiles_data=CC(=O)N[C@H](Cc1ccc2ccccc2c1)C(=O)N[C@H](Cc1ccc(Cl)cc1)C(=O)N[C@H](Cc1cccnc1)C(=O)N[C@@H](CO)C(=O)N[C@@H](Cc1ccc(NC(=O)[C@@H]2CC(=O)NC(=O)N2)cc1)C(=O)N[C@H](Cc1ccc(CNC(N)=O)cc1)C(=O)N[C@@H](CC(C)C)C(=O)N[C@@H](CCCCNC(C)C)C(=O)N1CCC[C@H]1C(=O)N[C@@H](C)CO result=>80%
smiles_data=CC(=O)N[C@H](Cc1ccc2ccccc2c1)C(=O)N[C@H](Cc1ccc(Cl)cc1)C(=O)N[C@H](Cc1cccnc1)C(=O)N[C@@H](CO)C(=O)N[C@@H](Cc1ccc(NC(=O)[C@@H]2CC(=O)NC(=O)N2)cc1)C(=O)N[C@H](Cc1ccc(CNC(N)=O)cc1)C(=O)N[C@@H](CC(C)C)C(=O)N[C@@H](CCCCNC(C)C)C(=O)N1CCC[C@H]1C(=O)N[C@H](C)CO result=>80%
